All values here come from ChEMBL document CHEMBL1137106.

- system.tested: Melanocortin receptor 4 (Homo sapiens, UniProt P32245)
- Sequence (P32245 whole entry): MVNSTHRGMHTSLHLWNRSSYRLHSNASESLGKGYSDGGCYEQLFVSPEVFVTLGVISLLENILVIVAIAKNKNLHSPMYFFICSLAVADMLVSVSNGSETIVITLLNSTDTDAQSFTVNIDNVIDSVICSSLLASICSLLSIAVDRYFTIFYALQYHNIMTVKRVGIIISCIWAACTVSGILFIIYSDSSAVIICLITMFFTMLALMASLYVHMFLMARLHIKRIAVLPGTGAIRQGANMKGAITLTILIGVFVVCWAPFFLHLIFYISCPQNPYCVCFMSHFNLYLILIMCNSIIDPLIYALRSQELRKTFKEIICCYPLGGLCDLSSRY
- method: Tested for inhibition of binding to MC4 receptor
readout.kind: pKi
Remember the convention: pKi equals -log10 of concentration in molar.

// query pKi value for entry COc1ccc(Br)cc1CCc1c(Cl)cccc1-c1nc(C)c[nH]1
6.74

Can you share its pKi? I mean this compound: COc1ccc(Br)cc1CCc1c(F)cccc1-c1ncc[nH]1
6.80

Name the recorded pKi for COc1ccc2ccccc2c1CCCCN1CCN(CC(c2ccc(F)cc2)N2CCN(C)CC2)CC1 (stereo not drawn) .
8.10

====

- method: Tested for inhibition of NDP-MSH binding
- Assay type: functional
readout.kind: pIC50
Notebook: values listed as pIC50 are -log10 of the concentration (mol/L).

Given CC(CN1CCN(CC(c2ccc(F)cc2)N2CCN(C)CC2)CC1)C(=O)c1ccccc1 (stereo unspecified) , state its recorded pIC50.
6.66
